Ref: patent US7026443

Catalogue of relative binding ratio (IC50 of standard peptide / IC50 of test peptide) readings, one per entry.
molecular target: HLA-A*1101 (human); assay: competition with 125I-labelled standard peptide for purified HLA-A*1101, gel filtration; settings: remark: other sources report otherwise
Number, no unit, nothing else.

Consider the worked cases shown below.
IVCPICSQK (modifications not checked) [… (HPV16 E7, position 89, 9 amino acids)]    0.0065
DLQPETTDLY (modifications not checked) [… (HPV16 E7, position 14, 10 amino acids)]    0.0002
GIVCPICSQK (modifications not checked) [… (HPV16 E7, position 88, 10 amino acids)]    0.067
ETTDLYCY (modifications not checked) [ETTDLYCY (HPV16 E7, position 18, 8 amino acids)]    0.0001

Now examine the next entry.
Enquiry: Fill in reported relative binding ratio (IC50 of standard peptide / IC50 of test peptide) for this entry: HGDTPTLHEY (modifications not checked) [… (HPV16 E7, position 2, 10 amino acids)]
Return: 0.0001
